SYSTEM: human sAC (Homo sapiens)
Construct: made in house
PROCEDURE SUMMARY: in vitro adenylyl cyclase assay with purified human sAC protein (cAMP by Correlate-EIA)
Format: biochemical
ASSAY CONDITIONS: 100 μM of compound; stimulated human sAC in vitro activity; read-out: % Inhibition (100 μM), hsACt-Stim.
MEASURED ATTRIBUTE: inhibition at 100 µM (%)

Field: example entries. Status: answers known.
O=C(CSc1nc2ccccc2[nH]1)N/N=C/c1cc(Br)cc(Br)c1O : 85
COc1ccc(/C=N/NC(=O)CSc2nc3ccccc3[nH]2)cc1Br : 50

I: O=C(CSc1nc2ccccc2[nH]1)N/N=C/c1cccc(Cl)c1
II: O=C(CSc1nc2ccccc2[nH]1)N/N=C/c1cc(Br)ccc1O
III: O=C(CSc1nc2ccccc2[nH]1)N/N=C/c1cccnc1
Q: Place the items in sequence of falling inhibition at 100 µM. Record the ranking as a list of labels in the requested order.
Ans: II, I, III

---

SYSTEM: human sAC (Homo sapiens, UniProt Q96PN6)
Construct: made in house
Sequence (Q96PN6 1-469 limits assumed): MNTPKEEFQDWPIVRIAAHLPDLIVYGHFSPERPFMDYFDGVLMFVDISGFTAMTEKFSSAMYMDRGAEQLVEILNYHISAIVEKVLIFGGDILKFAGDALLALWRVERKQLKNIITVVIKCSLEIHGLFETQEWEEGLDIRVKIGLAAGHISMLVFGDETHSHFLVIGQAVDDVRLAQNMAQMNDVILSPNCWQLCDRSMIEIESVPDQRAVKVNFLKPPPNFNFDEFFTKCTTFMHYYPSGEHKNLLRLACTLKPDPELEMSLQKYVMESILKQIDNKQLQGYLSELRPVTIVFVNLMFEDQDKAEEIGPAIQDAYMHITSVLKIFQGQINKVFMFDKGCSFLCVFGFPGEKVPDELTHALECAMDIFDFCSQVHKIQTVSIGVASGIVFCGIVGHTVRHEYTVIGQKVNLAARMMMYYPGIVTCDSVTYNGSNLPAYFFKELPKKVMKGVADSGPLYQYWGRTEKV
PROCEDURE SUMMARY: in vitro adenylyl cyclase assay with purified human sAC protein (cAMP by Correlate-EIA)
Format: biochemical
ASSAY CONDITIONS: 100 μM of compound; BASAL human sAC in vitro activity; read-out: % Inhibition (100 μM), hsACt-Basal
MEASURED ATTRIBUTE: inhibition at 100 µM (%)

a: O=C(CSc1nc2ccccc2n1Cc1ccc(Cl)cc1)N/N=C\c1cc(Br)ccc1O [KH7.144]
b: O=C(CSc1nc2ccccc2[nH]1)N/N=C/c1cc(I)cc(I)c1O [KH7.154]
Q: // compare: a vs b , metric inhibition at 100 µM, want the smaller Selection: enter the item's label.
Ans: a
(a: 70%, b: 100%)

a: O=C(CSc1nc2ccccc2[nH]1)N/N=C/c1ccccc1Cl [KH7.133]
b: O=C(CSc1nc2ccccc2[nH]1)N/N=C/c1cccnc1 [KH7.123]
c: COc1ccc(/C=N/NC(=O)CSc2nc3ccccc3[nH]2)cc1 [KH7.132]
Q: List by increasing inhibition at 100 µM. Record the ranking as a list of labels in the requested order.
Ans: b, c, a
(b: 0%, c: 10%, a: 60%)

The reported measurements were obtained from patent US9017681B2.
